Biological target: T4 DNA ligase (Enterobacteria phage T4, UniProt P00970)
Construct: purchased NEB
Sequence (P00970 1-487): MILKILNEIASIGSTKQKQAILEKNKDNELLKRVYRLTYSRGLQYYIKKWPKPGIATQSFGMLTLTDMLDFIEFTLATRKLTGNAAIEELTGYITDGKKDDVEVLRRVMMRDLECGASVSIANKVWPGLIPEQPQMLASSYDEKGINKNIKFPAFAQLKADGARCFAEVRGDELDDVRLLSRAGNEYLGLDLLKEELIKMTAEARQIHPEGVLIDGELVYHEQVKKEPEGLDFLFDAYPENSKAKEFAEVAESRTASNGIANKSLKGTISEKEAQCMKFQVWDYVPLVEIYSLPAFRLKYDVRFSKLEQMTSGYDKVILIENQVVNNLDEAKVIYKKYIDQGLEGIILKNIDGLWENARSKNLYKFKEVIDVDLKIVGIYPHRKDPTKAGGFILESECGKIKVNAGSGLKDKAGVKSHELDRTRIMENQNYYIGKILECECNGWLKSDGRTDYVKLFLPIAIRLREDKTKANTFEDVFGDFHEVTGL
Test: High-throughput fluorescence-based DNA joining assay, non-specific inhibitor control
Assay type: biochemical, bacteriophage T4
Details: 100 uM
Entries annotated with measured % activity Inhibition LigT4 100 uM
MEASURE: % activity Inhibition LigT4 100 uM (%)

1. CS(=O)(=O)NNC(=O)C(=O)NNc1ccccc1 [Compound 184]; 0.42
2. O=C(O)Cc1ccccc1S(=O)(=O)c1ccc(Cl)cc1 [Compound 193]; 0.44
3. NS(=O)(=O)c1ccc(CCNC(=O)CCS(=O)(=O)c2ccc(Br)cc2)cc1 [Compound 113]; 5.4
4. COC(=O)c1ccc(S(=O)(=O)O)o1 [Compound 55]; 0.58

====

Molecular target: hLigIIIβ (Homo sapiens)
Sequence (P49916 1-862 isoform P49916-4): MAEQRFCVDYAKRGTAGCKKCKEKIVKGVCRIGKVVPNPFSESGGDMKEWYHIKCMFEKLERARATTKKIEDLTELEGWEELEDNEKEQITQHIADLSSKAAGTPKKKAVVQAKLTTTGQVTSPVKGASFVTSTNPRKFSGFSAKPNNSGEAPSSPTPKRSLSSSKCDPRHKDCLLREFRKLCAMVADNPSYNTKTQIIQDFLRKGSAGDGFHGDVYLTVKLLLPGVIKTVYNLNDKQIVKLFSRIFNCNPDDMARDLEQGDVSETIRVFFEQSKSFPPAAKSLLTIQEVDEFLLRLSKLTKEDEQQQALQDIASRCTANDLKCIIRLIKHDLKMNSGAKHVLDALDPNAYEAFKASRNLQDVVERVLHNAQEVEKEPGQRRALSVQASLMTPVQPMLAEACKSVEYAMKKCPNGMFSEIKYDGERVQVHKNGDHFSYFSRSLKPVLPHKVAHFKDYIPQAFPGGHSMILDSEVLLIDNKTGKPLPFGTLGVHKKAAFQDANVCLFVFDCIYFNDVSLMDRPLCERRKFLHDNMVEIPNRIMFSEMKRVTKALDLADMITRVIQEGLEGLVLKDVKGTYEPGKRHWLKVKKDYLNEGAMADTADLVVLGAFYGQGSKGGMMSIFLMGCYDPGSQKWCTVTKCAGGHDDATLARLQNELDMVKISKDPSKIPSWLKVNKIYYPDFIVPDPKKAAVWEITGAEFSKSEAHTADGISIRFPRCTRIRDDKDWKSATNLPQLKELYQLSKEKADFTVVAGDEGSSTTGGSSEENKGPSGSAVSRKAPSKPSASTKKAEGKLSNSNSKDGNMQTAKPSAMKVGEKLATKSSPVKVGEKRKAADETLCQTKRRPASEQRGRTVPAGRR
Experiment: Radioactive gel-based DNA ligation assay
Type: biochemical
Conditions: grades ±, Ø (key not given)
MEASURE: % activity Inhibition hLigIII gel

1. COc1ccc(-c2cnc3c(O)nc(O)nc3n2)cc1; Ø
2. O=C(Cn1cnc([N+](=O)[O-])n1)N/N=C/c1ccc(O)cc1O; Ø
3. C/C(O)=C1/C(=O)N(c2nc3ccccc3s2)N=C1c1ccccc1; Ø
4. CS(=O)(=O)NNC(=O)C(=O)NNc1ccccc1; Ø
5. CSc1ccc(C(=O)O)s1; Ø
6. NS(=O)(=O)c1ccc(CCNC(=O)CCS(=O)(=O)c2ccc(Br)cc2)cc1; Ø

====

Biological target: human DNA ligase IV (Homo sapiens, UniProt P49917)
Sequence (P49917 whole entry): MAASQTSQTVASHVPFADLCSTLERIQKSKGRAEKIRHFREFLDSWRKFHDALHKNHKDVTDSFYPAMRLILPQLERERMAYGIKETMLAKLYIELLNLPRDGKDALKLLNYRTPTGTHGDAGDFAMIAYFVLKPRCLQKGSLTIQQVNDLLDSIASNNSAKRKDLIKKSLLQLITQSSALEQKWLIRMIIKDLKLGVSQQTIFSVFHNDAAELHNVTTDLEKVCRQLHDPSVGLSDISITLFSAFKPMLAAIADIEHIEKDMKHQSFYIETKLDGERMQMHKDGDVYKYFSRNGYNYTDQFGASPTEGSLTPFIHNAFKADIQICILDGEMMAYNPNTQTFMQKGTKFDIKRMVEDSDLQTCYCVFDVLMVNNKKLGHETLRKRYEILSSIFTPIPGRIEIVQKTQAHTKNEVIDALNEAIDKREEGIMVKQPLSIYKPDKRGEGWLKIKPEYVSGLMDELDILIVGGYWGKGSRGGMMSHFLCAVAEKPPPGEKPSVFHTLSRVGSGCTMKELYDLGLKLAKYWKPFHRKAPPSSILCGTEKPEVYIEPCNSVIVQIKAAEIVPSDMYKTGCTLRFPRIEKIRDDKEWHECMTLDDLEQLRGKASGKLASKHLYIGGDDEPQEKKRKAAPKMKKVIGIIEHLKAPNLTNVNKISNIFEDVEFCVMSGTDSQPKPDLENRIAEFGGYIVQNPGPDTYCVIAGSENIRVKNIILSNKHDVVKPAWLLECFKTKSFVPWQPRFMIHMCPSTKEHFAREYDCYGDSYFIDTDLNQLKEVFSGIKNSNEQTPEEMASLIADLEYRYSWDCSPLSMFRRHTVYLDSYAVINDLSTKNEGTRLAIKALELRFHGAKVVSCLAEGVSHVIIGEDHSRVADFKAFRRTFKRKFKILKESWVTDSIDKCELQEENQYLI
Sequence (Q13426 whole entry partner): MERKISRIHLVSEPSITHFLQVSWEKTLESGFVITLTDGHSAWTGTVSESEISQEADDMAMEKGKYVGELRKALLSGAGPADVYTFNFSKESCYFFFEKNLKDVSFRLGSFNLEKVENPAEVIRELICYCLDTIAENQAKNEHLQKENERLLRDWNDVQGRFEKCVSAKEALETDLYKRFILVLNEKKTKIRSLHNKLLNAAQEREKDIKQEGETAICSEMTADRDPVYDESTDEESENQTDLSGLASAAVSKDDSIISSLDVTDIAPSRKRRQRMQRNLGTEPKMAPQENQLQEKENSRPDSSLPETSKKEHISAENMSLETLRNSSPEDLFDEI
Test: High-throughput fluorescence-based DNA joining (ligation) assay
Format: biochemical
Details: 100 μM; read-out: In vitro % inhib hLigIV 100
MEASURE: inhibition at 100 µM

1. CSc1ccc(C(=O)O)s1; 0%
2. O=c1[nH]ncc(N/N=C\c2ccc(O)c([N+](=O)[O-])c2)c1Cl; 0%
3. O=C(O)CSc1cc(Cl)c2nonc2c1[N+](=O)[O-]; 52%
4. O=C(Cn1cnc([N+](=O)[O-])n1)N/N=C/c1ccc(O)cc1O; 0%
5. N#Cc1cn(CCCCCCCc2[nH]c(=O)[nH]c(=O)c2C#N)c(=O)[nH]c1=O; 0%
6. O=C(O)Cc1cncc(Br)c1; 50%
7. O=C(c1ccc(O)cc1)c1ccccc1O; 0%
8. O=C(O)c1cnn2c(C(F)(F)F)cc(-c3ccco3)nc12; 61%
9. Cc1oc(C(=O)O)cc1CSCc1cc(C(=O)O)c(C)o1; 57%
10. CCCCC(=O)c1ccc(O)cc1O; 0%
11. CCn1nc(N)c2c(O)nc(O)cc21; 37%
12. Cc1c(Br)cc(NCC(=O)N/N=C\c2cc([N+](=O)[O-])ccc2O)cc1Br; 0%
13. C/C(O)=C1/C(=O)N(c2nc3ccccc3s2)N=C1c1ccccc1; 0%
14. Nc1nc(S)nc(O)c1/N=C/c1ccccc1; 41%
15. O=C1Nc2c(C(=O)O)cccc2C1=O; 0%
16. COc1ccc(-c2cnc3c(O)nc(O)nc3n2)cc1; 0%
